- Measured on: human GLP-1 receptor (GLP-1R) (human, UniProt P43220 24-463)
- Test details: cell-based or functional assay
Reported metric: hGLP1R cAMP Rel EC50 (nM)
# unit: nM | format: bare number

Binder	Reported metric	Value unit	Recorded value
XXEGTXTSDYSILLDKKAQXAFIEYLIEGGPSSGAPPPS (D-Tyr1, Aib2, αMeF6, (2-[2-(2-Amino-ethoxy)-ethoxy]-acetyl)2-(γ-Glu)-CO-(CH2)18-CO2H on K17, Aib20, C-terminal NH2) [Example 329]	hGLP1R cAMP Rel EC50	nM	0.125

Value of measured hGLP1R cAMP Rel EC50 for the entry YXEGTXTSDYSILLDKKAQXAFIEYLIAGGPSSG (Aib2, αMeF6, (2-[2-(2-Amino-ethoxy)-ethoxy]-acetyl)2-(γ-Glu)-CO-(CH2)16-CO2H on K17, Aib20, C-terminal NH2) [Example 309] : 0.033

Value of measured hGLP1R cAMP Rel EC50 for the entry XXEGTFTSDYSIXLDXKAQXEFIEXLIAGGPSSGAPPPS (D-Tyr1, Aib2, αMeL13, Orn16, (2-[2-(2-Amino-ethoxy)-ethoxy]-acetyl)2-(γ-Glu)-CO-(CH2)18-CO2H on K17, Aib20, αMeY25, C-terminal NH2) [Example 293] : 0.132

Value of measured hGLP1R cAMP Rel EC50 for the entry YXEGTFTSDYSILLDKKAQKAFIEYLIEGGPSSGAPPPS (Aib2, (2-[2-(2-Amino-ethoxy)-ethoxy]-acetyl)2-(γ-Glu)-CO-(CH2)18-CO2H on K17, C-terminal NH2) [Example 256] : 0.0506

Value of measured hGLP1R cAMP Rel EC50 for the entry YXEGTFTSDYSIXLDEKAQXAFIXYLIAGGPSSGAPPPS (not fully specified; Aib2, αMeL13, (2-[2-(2-Amino-ethoxy)-ethoxy]-acetyl)2-(γ-Glu)-CO-(CH2)18-CO2H on K17, Aib20, D-Glu24, C-terminal NH2) [Example 343] : 0.124

Value of measured hGLP1R cAMP Rel EC50 for the entry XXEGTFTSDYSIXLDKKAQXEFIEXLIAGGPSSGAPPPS (D-Tyr1, Aib2, αMeL13, (2-[2-(2-Amino-ethoxy)-ethoxy]-acetyl)2-(γ-Glu)-CO-(CH2)18-CO2H on K17, Aib20, αMeY25, C-terminal NH2) [Example 292] : 0.183

Value of measured hGLP1R cAMP Rel EC50 for the entry XXEGTFTSDYSIXLDXKAQXAFIXYLIAGGPSSGAPPPS (D-Tyr1, Aib2, αMeL13, Orn16, (2-[2-(2-Amino-ethoxy)-ethoxy]-acetyl)2-(γ-Glu)-CO-(CH2)18-CO2H on K17, Aib20, D-Glu24, C-terminal NH2) [Example 291] : 0.15

Value of measured hGLP1R cAMP Rel EC50 for the entry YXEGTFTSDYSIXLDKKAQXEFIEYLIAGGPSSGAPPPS (not fully specified; Aib2, αMeL13, (2-[2-(2-Amino-ethoxy)-ethoxy]-acetyl)-(γ-Glu)-CO-(CH2)18-CO2H on K17, Aib20, C-terminal NH2) [Example 339] : 0.0986

Value of measured hGLP1R cAMP Rel EC50 for the entry XXEGTFTSDYSIXLDKKAQXEFIXYLIEGGPSSGAPPPS (D-Tyr1, Aib2, αMeL13, (2-[2-(2-Amino-ethoxy)-ethoxy]-acetyl)2-(γ-Glu)-CO-(CH2)18-CO2H on K17, Aib20, D-Glu24, C-terminal NH2) [Example 353] : 1.09
